Values were extracted from patent US20030068675.

# Target under test: ZFP SBS#1446 (synthetic)
# Sequence (chain, as listed by the source): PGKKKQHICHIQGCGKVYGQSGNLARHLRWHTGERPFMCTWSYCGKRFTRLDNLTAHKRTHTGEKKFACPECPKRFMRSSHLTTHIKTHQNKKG
# Experiment summary: EMSA
# Experimental parameters: tags: MBP fusion

| Binder | Kd [nM] |
| --- | --- |
| TGGAAGGAA (dsDNA) DNA 1: TGGAAGGAA DNA 2: TTCCTTCCA | 0.42 |
